test: Oral bioavailability study, AA in rat serum; format: in vivo, wistar rats; details: Wistar, 100 mg/kg, single oral dose, read-out: Time of maximum serum concentration
OBSERVABLE: Tmax (h)
All answers are understood in h, so give the number only.

The recorded Tmax for entry C[C@H]1[C@H](C)CC[C@]2(C(=O)O)CC[C@]3(C)C(=CC[C@@H]4[C@@]5(C)C[C@@H](O)[C@H](O)[C@@](C)(CO)[C@@H]5CC[C@]43C)[C@H]12 [AA, Asiatic acid] equals 4

====

experiment: Oral bioavailability study, AA in rat serum; format: in vivo, wistar rats; details: Wistar, single oral dose ~100 mg/kg AA
OBSERVABLE: AUC(0-t) (ng·h/mL)
Provide only the numeric value, understood in ng·h/mL.

# compound C[C@H]1[C@H](C)CC[C@]2(C(=O)O)CC[C@]3(C)C(=CC[C@@H]4[C@@]5(C)C[C@@H](O)[C@H](O)[C@@](C)(CO)[C@@H]5CC[C@]43C)[C@H]12 [AA, Asiatic acid] ; its AUC(0-t) = 40500
